Assay: Clinical pharmacokinetics, plasma LC-MS/MS after single oral dose of AP capsules
Format: in vivo, human (healthy volunteers)
Conditions: human, plasma, oral, 2000 mg, S3; 24.00 h; 2000 mg AP capsules; read-out: Plasma concentration
Would you kindly list concentration at 24 h for each of these compounds?
One number for each entry, in ng/mL.

Examples with their reported concentration at 24 h follow.
compound	test readout	measured result
C=C1CC[C@@H]2[C@](C)(CO[C@@H]3O[C@H](CO)[C@@H](O)[C@H](O)[C@H]3O)CCC[C@@]2(C)[C@@H]1CCC1=CCOC1=O [neoandrographolide]	concentration at 24 h	0
C=C1CC[C@@H]2[C@](C)(CO)[C@H](O)CC[C@@]2(C)[C@@H]1CCC1=CCOC1=O [14-deoxyandrographolide]	concentration at 24 h	0

Please look at the following compound next.
Which value of concentration at 24 h has been reported for C=C1CC[C@@H]2[C@](C)(CO)[C@H](O)CC[C@@]2(C)[C@@H]1C/C=C1/C(=O)OC[C@H]1O [andrographolide] in the records?
0

---

Assay: Clinical pharmacokinetics, plasma LC-MS/MS after single oral dose of AP capsules
Assay type: in vivo, human (healthy volunteers)
Conditions: human, plasma, oral, 2000 mg, S3; 8.00 h; 2000 mg AP capsules; read-out: Plasma concentration
Can you tell me concentration at 8 h for the items I'm about to list?
Answers are plain numbers, in ng/mL.

compound	units symbol	concentration at 8 h
C=C1CC[C@@H]2[C@](C)(CO)[C@H](O)CC[C@@]2(C)[C@@H]1CCC1=CCOC1=O [14-deoxyandrographolide]	ng/mL	0
C=C1CC[C@@H]2[C@](C)(CO[C@@H]3O[C@H](CO)[C@@H](O)[C@H](O)[C@H]3O)CCC[C@@]2(C)[C@@H]1CCC1=CCOC1=O [neoandrographolide]	ng/mL	0

Please turn your attention to the following entry.
Suppose we examine the compound C=C1CC[C@@H]2[C@](C)(CO)[C@H](O)CC[C@@]2(C)[C@@H]1C/C=C1/C(=O)OC[C@H]1O [andrographolide] ; what concentration at 8 h value has been reported?
0

---

Provide the reported concentration at 8 h of each item.
Experiment: Clinical pharmacokinetics, plasma LC-MS/MS after single oral dose of AP capsules
Assay type: in vivo, human (healthy volunteers)
Conditions: human, plasma, oral, 2000 mg, S4; 8.00 h; 2000 mg AP capsules; read-out: Plasma concentration
Answers are plain numbers, in ng/mL.

Example results:
molecule	units symbol	concentration at 8 h
C=C1CC[C@@H]2[C@](C)(CO[C@@H]3O[C@H](CO)[C@@H](O)[C@H](O)[C@H]3O)CCC[C@@]2(C)[C@@H]1CCC1=CCOC1=O [neoandrographolide]	ng/mL	2.08
C=C1CC[C@@H]2[C@](C)(CO)[C@H](O)CC[C@@]2(C)[C@@H]1CCC1=CCOC1=O [14-deoxyandrographolide]	ng/mL	2.47

Now, please, on to the next molecule.
Which concentration at 8 h value belongs to C=C1CC[C@@H]2[C@](C)(CO)[C@H](O)CC[C@@]2(C)[C@@H]1C/C=C1/C(=O)OC[C@H]1O [andrographolide] ?
0

---

Task for the reader: assign each of the following molecules its reported concentration at 10 h.
Assay: Clinical pharmacokinetics, plasma LC-MS/MS after single oral dose of AP capsules
Type: in vivo, human (healthy volunteers)
Conditions: human, plasma, oral, 2000 mg, S5; 10.00 h; 2000 mg AP capsules; read-out: Plasma concentration
One number for each entry, in ng/mL.

Example molecules with recorded concentration at 10 h:
molecule	units symbol	concentration at 10 h
C=C1CC[C@@H]2[C@](C)(CO)[C@H](O)CC[C@@]2(C)[C@@H]1CCC1=CCOC1=O [14-deoxyandrographolide]	ng/mL	0
C=C1CC[C@@H]2[C@](C)(CO[C@@H]3O[C@H](CO)[C@@H](O)[C@H](O)[C@H]3O)CCC[C@@]2(C)[C@@H]1CCC1=CCOC1=O [neoandrographolide]	ng/mL	0

Using the record for C=C1CC[C@@H]2[C@](C)(CO)[C@H](O)CC[C@@]2(C)[C@@H]1C/C=C1/C(=O)OC[C@H]1O [andrographolide] , report its concentration at 10 h.
0

---

Please provide measured concentration at 1.5 h for the entries that follow.
Assay: Clinical pharmacokinetics, plasma LC-MS/MS after single oral dose of AP capsules
Type: in vivo, human (healthy volunteers)
Conditions: human, plasma, oral, 2000 mg, S4; 1.50 h; 2000 mg AP capsules; read-out: Plasma concentration
Procedure: The protocol was published (Tee et al. [2022]). Seven calibrators ranging from 1, 2, 5,10, 20, 50, and 100 ng mL^−1 were prepared. […] Pharmacokinetic parameters were determined from plasma samples (5 subjects, 15 time points) analyzed via LC–MS/MS (Shimadzu 8060NX). […]
Give bare numbers, in ng/mL.

compound	test readout	measured result
C=C1CC[C@@H]2[C@](C)(CO)[C@H](O)CC[C@@]2(C)[C@@H]1CCC1=CCOC1=O [14-deoxyandrographolide]	concentration at 1.5 h	13.2
C=C1CC[C@@H]2[C@](C)(CO)[C@H](O)CC[C@@]2(C)[C@@H]1C/C=C1/C(=O)OC[C@H]1O [andrographolide]	concentration at 1.5 h	22.1

--- query ---
Requested read-out: concentration at 1.5 h. Entry: C=C1CC[C@@H]2[C@](C)(CO[C@@H]3O[C@H](CO)[C@@H](O)[C@H](O)[C@H]3O)CCC[C@@]2(C)[C@@H]1CCC1=CCOC1=O [neoandrographolide]
109

---

Assay: Clinical pharmacokinetics, plasma LC-MS/MS after single oral dose of AP capsules
Type: in vivo, human (healthy volunteers)
Conditions: human, plasma, oral, 2000 mg, S5; 24.00 h; 2000 mg AP capsules; read-out: Plasma concentration
test readout: concentration at 24 h (ng/mL)
Answers are plain numbers, in ng/mL.

Known results for compounds:
compound	concentration at 24 h, ng/mL
C=C1CC[C@@H]2[C@](C)(CO)[C@H](O)CC[C@@]2(C)[C@@H]1C/C=C1/C(=O)OC[C@H]1O [andrographolide]	0
C=C1CC[C@@H]2[C@](C)(CO[C@@H]3O[C@H](CO)[C@@H](O)[C@H](O)[C@H]3O)CCC[C@@]2(C)[C@@H]1CCC1=CCOC1=O [neoandrographolide]	0

# ---- query compound ----
Which value of concentration at 24 h has been reported for C=C1CC[C@@H]2[C@](C)(CO)[C@H](O)CC[C@@]2(C)[C@@H]1CCC1=CCOC1=O [14-deoxyandrographolide] in the records?
0
